Assay: PK exposure of AZA in patients
Type: in vivo
Details: human, plasma; oral AZA, patients of the clinical study; read-out: AUCinf of patients in whom decreases in DNA methylation were observed
Quantity measured: AUC(0-inf)

input: Which AUC(0-inf) value is on record for Nc1ncn([C@@H]2O[C@H](CO)[C@@H](O)[C@H]2O)c(=O)n1 [AZA] ?
output: > 350 ng·h/mL
